Data origin, for the record: the supplement of paper PMC6555819

tested on: RARa homodimer (NR concentration 270 nM); assay: PBM binding z-score (relative to random genomic background probes); higher = stronger binding; sequences stand for … in GC…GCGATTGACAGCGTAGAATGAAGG
Measured PBM binding z-score of individual entries
Could you keep your reply to the number by itself?

1. TAGCCGAGGTCATGCGGGCCAGTATAGTGTCGGC	0.453
2. TCATATAGGTAAAGGTGAAAGCCGAACGATATGA	-0.251

Lab note: sequence TCAGCTAGGTCAACGATGGTCAGCTAATCTGCTA tested on RARa homodimer (NR concentration 270 nM); recorded PBM binding z-score was -0.477

Lab note: sequence CCAGACAGGTGAGAAGGGAACTCAGCCTCGATTA tested on RARa homodimer (NR concentration 270 nM); recorded PBM binding z-score was 0.727

Lab note: sequence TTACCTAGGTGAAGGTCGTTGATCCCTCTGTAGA tested on RARa homodimer (NR concentration 270 nM); recorded PBM binding z-score was -0.66

Lab note: sequence TCGAGTAGGTTACCAATGGGGCATTCTGCTTTCT tested on RARa homodimer (NR concentration 270 nM); recorded PBM binding z-score was -0.932

----------
tested on: PXR:RXRa (NR concentration 270 nM, RXRa partner concentration 90 nM); assay: PBM binding z-score (relative to random genomic background probes); higher = stronger binding; sequences stand for … in GC…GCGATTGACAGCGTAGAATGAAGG
Observation Type: PBM binding z-score
Could you keep your reply to the number by itself?

Please review the following examples before continuing.
1. ACTATTAGTTGAGACGAGGGCAACCGCTAGGTTG	1.55
2. GGAACGAGGGCATTCGAGTTGATAGAATGGCGAT	3.87
3. TTACCAAGGTAAAGGTCGTTGATCCCTCTGTAGA	2.59
4. CCTAGCAGGCCAATCTGGGTCACACAAGGCTTGA	1.56

The sequence identified as TAGCGTAGGTCAGATCGGGCCAGTATACGCTATA registered its PBM binding z-score at 1.48

The sequence identified as ACTACTTGGTCAGCTGAGGTCACACACAATTCGG registered its PBM binding z-score at 5.72

----------
test system: PPARg DBDmut IVT, anti-PPARg (DBD mutation: PPARg1 K132A/R137A, NR concentration 270 nM); experiment: PBM binding z-score (relative to random genomic background probes); higher = stronger binding; sequences stand for … in GC…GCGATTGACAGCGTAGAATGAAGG
Observation Type: PBM binding z-score
Could you keep your reply to the number by itself?

1) CCTTAAGGGTCACTCCAGGTTATAGCATCGGAGT	0.102
2) CTACCAAGGTGAACATGGTCGTTGATTACTATTC	-0.0867
3) TCTTGTAGATCAATAGAGGTTAAGAAGGTGCGCT	0.519

The sequence identified as ACAGACGGGTGATGAAGGTAACTCAGGCTATCAT registered its PBM binding z-score at -0.242

The sequence identified as CCAGACAGGTGAATGGTAACTCAGTCTGGTACGC registered its PBM binding z-score at -0.717

The sequence identified as TATACAGGGTCAAAGGCCAGAATACGAATGTCGA registered its PBM binding z-score at 2.34

The sequence identified as CGTCAAAATTCAACTAAGGTAACGTAAAGCACGC registered its PBM binding z-score at 1.22

The sequence identified as TCTTGTAGATCAACAGGAAGTTAAGAAAGATCGA registered its PBM binding z-score at 0.377

The sequence identified as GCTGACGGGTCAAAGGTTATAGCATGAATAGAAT registered its PBM binding z-score at 0.679

The sequence identified as CCGACTGGGGCATAAGGTTACCATGAGCCAGCCC registered its PBM binding z-score at -1.56

The sequence identified as GCTCGGAGGTCAAGGTCAGAGCTTTGTCCGTAGA registered its PBM binding z-score at -0.512

The sequence identified as AGAATGAGTTTATTAAGATCAGGGAATTGCGGTC registered its PBM binding z-score at 0.0162
